# Experimental Target: human recombinant dopamine D2 receptor (Homo sapiens (Human), UniProt P14416)
# Sequence (P14416 whole entry): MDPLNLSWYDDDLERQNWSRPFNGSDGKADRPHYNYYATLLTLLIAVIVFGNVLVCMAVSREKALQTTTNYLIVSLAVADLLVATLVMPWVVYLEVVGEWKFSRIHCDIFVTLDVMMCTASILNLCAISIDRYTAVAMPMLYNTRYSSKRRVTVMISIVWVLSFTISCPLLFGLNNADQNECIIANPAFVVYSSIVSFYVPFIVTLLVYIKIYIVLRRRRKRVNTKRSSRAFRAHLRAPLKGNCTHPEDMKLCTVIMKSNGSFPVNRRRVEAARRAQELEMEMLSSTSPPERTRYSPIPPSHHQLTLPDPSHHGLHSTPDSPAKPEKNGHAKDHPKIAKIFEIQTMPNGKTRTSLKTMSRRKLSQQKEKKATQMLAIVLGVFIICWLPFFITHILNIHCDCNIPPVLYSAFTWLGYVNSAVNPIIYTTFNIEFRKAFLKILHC
# Assay Name: Test of binding inhibition for dopamine D2 receptor ([3H]-Methylspiperone SPA)
# Measurement Context: [3H]-Methylspiperone 1.2 nM, Jump-In HEK cell membranes; read-out: hD2_Ki
Recorded Endpoint: Ki

> print(dat)
                                   compound                       experimental.target     result
1  Cc1cc(OCC(=O)N[C@H]2CC[C@H](CCN3CCc4ccc(CCC(F)(F)F)nc4CC3)CC2)no1 [I′-8]  human recombinant dopamine D2 receptor (Homo sapiens (Human), UniProt P14416)  > 2300 nM
2  Cc1ncc(CC(=O)N[C@H]2CC[C@H](CCN3CCc4cc(F)c(OCC(F)F)nc4CC3)CC2)o1 [I′-57]  human recombinant dopamine D2 receptor (Homo sapiens (Human), UniProt P14416)  > 2200 nM
3  Cc1cnc(OCC(=O)N[C@H]2CC[C@](F)(CCN3CCc4ccc(OCC(F)F)nc4CC3)CC2)cn1 [I′-53]  human recombinant dopamine D2 receptor (Homo sapiens (Human), UniProt P14416)  > 2200 nM

Item Cn1ncc(CC(=O)N[C@H]2CC[C@](F)(CCN3CCc4nc(OCC(F)(F)F)sc4CC3)CC2)c1F [I′-23] : provide Ki
> 2200 nM
